Target: Acetylcholinesterase (Rattus norvegicus, UniProt P37136)
Sequence (P37136 whole entry): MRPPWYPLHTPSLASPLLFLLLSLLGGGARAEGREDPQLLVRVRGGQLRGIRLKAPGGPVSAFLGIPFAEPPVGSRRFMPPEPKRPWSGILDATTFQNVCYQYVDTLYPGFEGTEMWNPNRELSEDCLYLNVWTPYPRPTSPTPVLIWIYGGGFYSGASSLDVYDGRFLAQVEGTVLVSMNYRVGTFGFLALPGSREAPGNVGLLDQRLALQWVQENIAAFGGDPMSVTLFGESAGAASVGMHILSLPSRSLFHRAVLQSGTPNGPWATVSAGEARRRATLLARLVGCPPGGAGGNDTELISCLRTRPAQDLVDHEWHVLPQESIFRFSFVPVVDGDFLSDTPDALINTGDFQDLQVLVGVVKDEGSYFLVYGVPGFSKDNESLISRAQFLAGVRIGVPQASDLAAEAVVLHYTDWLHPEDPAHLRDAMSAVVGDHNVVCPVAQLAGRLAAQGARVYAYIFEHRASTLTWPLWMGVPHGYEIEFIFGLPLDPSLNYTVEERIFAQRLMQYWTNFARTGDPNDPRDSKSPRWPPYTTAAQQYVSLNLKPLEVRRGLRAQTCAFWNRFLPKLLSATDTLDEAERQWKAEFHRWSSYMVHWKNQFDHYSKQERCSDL
Assay: Inhibition of AChE in Wistar rat brain cortex using acetylthiocholine iodide as substrate by Ellman's colorimetric method
Conditions: read-out: IC50
Documented IC50 across a set of molecules
EXPERIMENTAL_READOUT: IC50

> print(dat)
                                test.smiles  experimental.readout  reported.result
1  COc1ccc(-c2nc(-c3ccccc3)c(-c3ccccc3)n2CCCCCCCCNc2c3c(nc4ccccc24)CCCC3)cc1                  IC50           126 nM
2  Clc1ccc(-c2nc(-c3ccccc3)c(-c3ccccc3)n2CCCCCCCNc2c3c(nc4ccccc24)CCCC3)cc1                  IC50          59.8 nM
3  O=[N+]([O-])c1ccc(-c2nc(-c3ccccc3)c(-c3ccccc3)n2CCCCCCCNc2c3c(nc4ccccc24)CCCC3)cc1                  IC50          72.1 nM
4  Clc1ccc(-c2nc(-c3ccccc3)c(-c3ccccc3)n2CCCCCCCCNc2c3c(nc4ccccc24)CCCC3)cc1                  IC50          5.87 nM
